Origin of measurements: the Human Domainome abundance scans (Beltran et al. 2025)

In this section we review reported abundance fitness values for a set of variants.
B1: Dystrobrevin alpha, residues 235 to 294; numbered along this chain, Q9Y4J8 (parent)
chain: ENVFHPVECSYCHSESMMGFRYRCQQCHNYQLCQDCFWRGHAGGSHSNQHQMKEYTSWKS

# Variants of: B1
# Method description: abundance fitness (aPCA) (normalised: wild type 0, dead -1); higher = more abundant; growth selection in yeast, the domain comes from the species named
# Condition parameters: Homo sapiens

These solved cases illustrate the format of a correct answer.
W58K = 0.195
S16I = 0.148

Output measured abundance fitness for this item: `W38L`
0.167

Output measured abundance fitness for this item: `S60Q`
0.216

Output measured abundance fitness for this item: `E1C`
0.297

Output measured abundance fitness for this item: `W38D`
0.288

Output measured abundance fitness for this item: `E15N`
0.03

Output measured abundance fitness for this item: `C12P`
-1.29

Output measured abundance fitness for this item: `C33M`
-0.823

Output measured abundance fitness for this item: `R23M`
0.006

Output measured abundance fitness for this item: `C33G`
-0.78
